Some compounds, each annotated with its measured pIC50.
Biological target: PDGF-Ra (Homo sapiens)
Construct: host or cells: G-292 human osteosarcoma cells
Assay: Inhibitory activity against PDGF-Ra phosphorylation by PDGF-AA stimulation using G292
Assay type: cell-based
Settings: Pharmacological Test Example 1; > means inhibition at indicated concentration not more than 50%, < and << not less than 50%; read-out: PDGF (E) IC50
pIC50: −log10 of the molar value.
READOUT LABEL: pIC50

INSERT INTO results (compound, readout_label, censoring_sign, value) VALUES
  ('COc1cc2nccc(Oc3ccc(NC(=O)OC(C)c4cccc(N(C)C)c4)c(C)c3C)c2cc1OC (stereo not shown)', 'pIC50', '=', 7.51),
  ('COc1cc2ncnc(Oc3ccc(NC(=O)OCCCOc4cccc(F)c4)cc3)c2cc1OC', 'pIC50', '>', 8.00),
  ('CCCCC(CCCC)OC(=O)Nc1ccc(Oc2ccnc3cc(OC)c(OC)cc23)c(C)c1C', 'pIC50', '=', 7.13),
  ('COc1cc2nccc(Oc3ccc(NC(=O)OC(C)c4ccc(C)cc4)c(C)c3C)c2cc1OC (stereo not shown)', 'pIC50', '=', 7.59),
  ('COc1cc2nccc(Oc3cc(C)c(NC(=O)OC(C)c4cccc(F)c4)cc3C)c2cc1OC (stereo not shown)', 'pIC50', '=', 7.68),
  ('CCC(OC(=O)Nc1ccc(Oc2ccnc3cc(OC)c(OC)cc23)c(C)c1C)c1ccccc1 (stereo not shown)', 'pIC50', '=', 7.46),
  ('COc1cc2nccc(Oc3ccc(NC(=O)OC(C)c4ccc(F)cc4)cc3)c2cc1OC (stereo not shown)', 'pIC50', '>', 8.00),
  ('COc1cc2ncnc(Oc3ccc(NC(=O)OC4CCCCC4)c(C)c3C)c2cc1OC', 'pIC50', '=', 7.89),
  ('COc1cc2nccc(Oc3ccc(NC(=O)OCC4CCCC4)cc3)c2cc1OC', 'pIC50', '>', 8.00),
  ('COc1cc2nccc(Oc3ccc(NC(=O)OC(C)c4ccccc4Cl)cc3)c2cc1OC (stereo not shown)', 'pIC50', '>', 8.00),
  ('COc1cc2nccc(Oc3ccc(NC(=O)Oc4ccccc4OC)c(C)c3C)c2cc1OC', 'pIC50', '>', 8.00),
  ('COc1cc2nccc(Oc3ccc(NC(=O)OC(C)c4cccc(Cl)c4)c(C)c3C)c2cc1OC (stereo not shown)', 'pIC50', '>', 8.00),
  ('COc1cc2nccc(Oc3ccc(NC(=O)OCCc4ccccc4)c(C)c3C)c2cc1OC', 'pIC50', '>', 8.00);

* * *

Biological target: PDGF-Ra (Homo sapiens, UniProt P16234)
Construct: host or cells: G-292 human osteosarcoma cells
Sequence (P16234 24-1089): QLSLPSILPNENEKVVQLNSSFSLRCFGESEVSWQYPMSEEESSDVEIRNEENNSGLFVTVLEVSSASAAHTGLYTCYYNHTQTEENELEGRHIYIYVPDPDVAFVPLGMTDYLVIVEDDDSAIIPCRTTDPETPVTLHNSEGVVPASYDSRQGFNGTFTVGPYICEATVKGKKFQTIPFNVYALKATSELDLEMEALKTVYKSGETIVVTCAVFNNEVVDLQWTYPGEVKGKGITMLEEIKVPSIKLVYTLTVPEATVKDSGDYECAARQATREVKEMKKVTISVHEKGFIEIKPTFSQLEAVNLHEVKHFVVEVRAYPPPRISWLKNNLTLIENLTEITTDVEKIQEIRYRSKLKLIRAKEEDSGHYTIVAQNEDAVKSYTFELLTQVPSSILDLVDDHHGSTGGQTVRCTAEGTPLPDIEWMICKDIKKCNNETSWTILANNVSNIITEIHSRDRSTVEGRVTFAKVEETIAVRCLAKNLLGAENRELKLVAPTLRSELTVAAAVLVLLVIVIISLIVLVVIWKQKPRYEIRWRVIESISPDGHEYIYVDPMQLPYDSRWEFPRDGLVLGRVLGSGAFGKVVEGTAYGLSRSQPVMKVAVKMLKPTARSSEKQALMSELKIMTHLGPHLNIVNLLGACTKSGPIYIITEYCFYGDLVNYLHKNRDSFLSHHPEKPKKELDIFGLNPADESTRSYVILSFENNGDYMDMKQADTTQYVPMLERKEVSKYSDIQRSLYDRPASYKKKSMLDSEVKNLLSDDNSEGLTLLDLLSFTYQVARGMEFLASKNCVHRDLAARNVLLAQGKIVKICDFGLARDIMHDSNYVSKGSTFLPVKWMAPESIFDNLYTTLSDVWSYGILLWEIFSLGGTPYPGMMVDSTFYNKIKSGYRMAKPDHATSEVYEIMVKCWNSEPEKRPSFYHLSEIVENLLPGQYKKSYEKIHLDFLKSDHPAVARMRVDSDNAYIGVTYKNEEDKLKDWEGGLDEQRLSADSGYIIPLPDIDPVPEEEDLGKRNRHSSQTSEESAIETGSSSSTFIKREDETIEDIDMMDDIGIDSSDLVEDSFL
Assay: Inhibitory activity against PDGF-Ra phosphorylation by PDGF-AA stimulation using G292
Assay type: cell-based
Settings: Pharmacological Test Example 1; > means inhibition at indicated concentration not more than 50%, < and << not less than 50%; read-out: PDGF (E) IC50
READOUT LABEL: IC50

INSERT INTO results (molecule, target_under_test, value) VALUES
  ('COc1cc2nccc(Oc3cc(C)c(NC(=O)Oc4ccccc4OC)cc3C)c2cc1OC', 'PDGF-Ra (Homo sapiens, UniProt P16234)', '53 nM'),
  ('COc1cc2ncnc(Oc3ccc(NC(=O)OC4CCCC4)cc3)c2cc1OC', 'PDGF-Ra (Homo sapiens, UniProt P16234)', '27 nM'),
  ('COc1cc2ncnc(Oc3ccc(NC(=O)OCCC4CCCCC4)c(Cl)c3)c2cc1OC', 'PDGF-Ra (Homo sapiens, UniProt P16234)', '< 10 nM'),
  ('COc1cc2nccc(Oc3ccc(NC(=O)OCCCSc4ccc(C)cc4)c(C)c3C)c2cc1OC', 'PDGF-Ra (Homo sapiens, UniProt P16234)', '< 10 nM'),
  ('COc1cc2nccc(Oc3cc(C)c(NC(=O)OCCc4cccc(C(F)(F)F)c4)cc3C)c2cc1OC', 'PDGF-Ra (Homo sapiens, UniProt P16234)', '27 nM'),
  ('COc1cc2nccc(Oc3ccc(NC(=O)OCCOc4ccccc4F)cc3)c2cc1OC', 'PDGF-Ra (Homo sapiens, UniProt P16234)', '25 nM'),
  ('COc1cc2nccc(Oc3cc(C)c(NC(=O)OCC4CCCCC4)cc3C)c2cc1OC', 'PDGF-Ra (Homo sapiens, UniProt P16234)', '< 10 nM'),
  ('COc1cccc(OCCCOC(=O)Nc2ccc(Oc3ccnc4cc(OC)c(OC)cc34)c(C)c2C)c1 [Example 48]', 'PDGF-Ra (Homo sapiens, UniProt P16234)', '< 10 nM'),
  ('COc1ccccc1COC(=O)Nc1cc(C)c(Oc2ccnc3cc(OC)c(OC)cc23)cc1C', 'PDGF-Ra (Homo sapiens, UniProt P16234)', '9 nM'),
  ('COc1cc2nccc(Oc3cc(C)c(NC(=O)OCc4ccc(C)cc4)cc3C)c2cc1OC', 'PDGF-Ra (Homo sapiens, UniProt P16234)', '> 100 nM'),
  ('COc1cc2ncnc(Oc3ccc(NC(=O)OCCCSc4ccc(C)cc4)c(Cl)c3)c2cc1OC', 'PDGF-Ra (Homo sapiens, UniProt P16234)', '< 10 nM'),
  ('COc1cc2ncnc(Oc3ccc(NC(=O)OCc4ccc(F)cc4)cc3)c2cc1OC', 'PDGF-Ra (Homo sapiens, UniProt P16234)', '< 10 nM'),
  ('COc1cc2ncnc(Oc3ccc(NC(=O)OCCc4ccccc4)c(Cl)c3)c2cc1OC', 'PDGF-Ra (Homo sapiens, UniProt P16234)', '38 nM'),
  ('COc1cc2nccc(Oc3ccc(NC(=O)OCc4ccc(F)cc4)c(C)c3C)c2cc1OC', 'PDGF-Ra (Homo sapiens, UniProt P16234)', '< 10 nM'),
  ('COc1cc2nccc(Oc3ccc(NC(=O)OCC4CCCCCC4)c(C)c3C)c2cc1OC', 'PDGF-Ra (Homo sapiens, UniProt P16234)', '< 10 nM'),
  ('COc1cccc(OCCCOC(=O)Nc2ccc(Oc3ncnc4cc(OC)c(OC)cc34)cc2)c1 [Example 50]', 'PDGF-Ra (Homo sapiens, UniProt P16234)', '< 10 nM'),
  ('COc1cc2ncnc(Oc3ccc(NC(=O)OCCCc4ccccc4)c(Cl)c3)c2cc1OC', 'PDGF-Ra (Homo sapiens, UniProt P16234)', '11 nM'),
  ('COc1cc2nccc(Oc3cc(C)c(NC(=O)OCc4ccccc4C)cc3C)c2cc1OC [Example 245]', 'PDGF-Ra (Homo sapiens, UniProt P16234)', '16 nM'),
  ('COc1cc2ncnc(Oc3ccc(NC(=O)OCCCOc4ccccc4Cl)c(Cl)c3)c2cc1OC', 'PDGF-Ra (Homo sapiens, UniProt P16234)', '< 10 nM'),
  ('COc1cc2ncnc(Oc3ccc(NC(=O)OCc4ccc(C)cc4)c(Cl)c3)c2cc1OC', 'PDGF-Ra (Homo sapiens, UniProt P16234)', '17 nM'),
  ('COc1cc2nccc(Oc3cc(C)c(NC(=O)OCC4CCC4)cc3C)c2cc1OC', 'PDGF-Ra (Homo sapiens, UniProt P16234)', '20 nM'),
  ('COc1cc2nccc(Oc3ccc(NC(=O)OCCC4CCCCC4)cc3)c2cc1OC', 'PDGF-Ra (Homo sapiens, UniProt P16234)', '< 10 nM'),
  ('C=CCOC(=O)Nc1ccc(Oc2ccnc3cc(OC)c(OC)cc23)c(C)c1C', 'PDGF-Ra (Homo sapiens, UniProt P16234)', '< 10 nM'),
  ('COc1cc2nccc(Oc3ccc(NC(=O)OCc4ccc(F)cc4)cc3)c2cc1OC', 'PDGF-Ra (Homo sapiens, UniProt P16234)', '< 10 nM'),
  ('COc1cc2nccc(Oc3ccc(NC(=O)OCC4CCCCC4)cc3)c2cc1OC', 'PDGF-Ra (Homo sapiens, UniProt P16234)', '< 10 nM'),
  ('COc1ccc(C(C)OC(=O)Nc2ccc(Oc3ccnc4cc(OC)c(OC)cc34)c(C)c2C)cc1 (stereo not shown)', 'PDGF-Ra (Homo sapiens, UniProt P16234)', '23 nM'),
  ('COc1cccc(OC(=O)Nc2ccc(Oc3ccnc4cc(OC)c(OC)cc34)cc2)c1', 'PDGF-Ra (Homo sapiens, UniProt P16234)', '> 30 nM'),
  ('COc1cc2nccc(Oc3cc(C)c(NC(=O)OCCCSc4ccc(Cl)cc4C)cc3C)c2cc1OC', 'PDGF-Ra (Homo sapiens, UniProt P16234)', '18 nM');

* * *

Some compounds, each annotated with its measured pIC50.
Molecular target: PDGF-Ra (Homo sapiens, UniProt P16234)
Construct: host or cells: G-292 human osteosarcoma cells
Assay: Inhibitory activity against PDGF-Ra phosphorylation by PDGF-AA stimulation using G292
Format: cell-based
Conditions: > means inhibition at indicated concentration not more than 50%, < and << not less than 50%; read-out: PDGF (E) IC50
pIC50: −log10 of the molar value.
READOUT LABEL: pIC50

INSERT INTO measurements (compound, value) VALUES
  ('COc1cc2ncnc(Oc3ccc(NC(=S)NC(=O)c4ccccc4C)c(N4CCOCC4)c3)c2cc1OC', '> 8.00'),
  ('COc1cc2nccc(Oc3ccc(NC(=S)NC(=O)c4ccccc4OC)c(Cl)c3)c2cc1OC', '< 7.00'),
  ('CCCC(CCN1CCN(C)CC1)OC(=O)Nc1ccc(Oc2ccnc3cc(OC)c(OC)cc23)c(C)c1C (stereo not drawn)', '< 7.00'),
  ('CCCC(CCN1CCN(C)CC1)OC(=O)Nc1ccc(Oc2ccnc3cc(OC)c(OC)cc23)cc1 (stereo not drawn)', '< 7.00'),
  ('COc1cc2ncnc(Oc3ccc(NC(=O)NN4CCCCCC4)cc3)c2cc1OC', 7.96),
  ('COc1cc2nccc(Oc3ccc(NC(=S)NC(=O)CCSC)c(C)c3)c2cc1OC', '< 7.00'),
  ('COc1cc2nccc(Oc3ccc(NC(=S)NC(=O)c4ccccc4C)c(Cl)c3)c2cc1OC', '< 7.00'),
  ('CCCCCOc1ccc(C(=O)NC(=S)Nc2ccc(Oc3ccnc4cc(OC)c(OC)cc34)c(Cl)c2)cc1', '< 7.00'),
  ('COc1cc2nccc(Oc3ccc(NC(=S)NCc4ccccc4)cc3Cl)c2cc1OC', '> 8.00');
